- Test system: barnyardgrass
- assayProcedure: Test A preemergence
- Format: in vivo, Echinochloa crusgalli
- testContext: 500 g ai/ha, visual injury after 10 days, 0 to 100 scale, 0 is no effect, 100 is complete control
Consider the following compounds and their measured Plant response rating, Barnyardgrass readings.
recordedEndpoint: Plant response rating, Barnyardgrass

* CC(C)c1ncn(-c2ccc(OC(F)(F)F)c(C(=O)N3C[C@H](C)Oc4c(Cl)cccc43)c2)n1 | 100
* CC(C)c1ncn(-c2cc3c(c(C(=O)N4C[C@H](C)Oc5c(Cl)cccc54)c2)OCC3)n1 | 100
* COCCc1ncn(-c2cccc(C(=O)N3C[C@H](C)Oc4c(C)cccc43)c2)n1 | 100
* CC(C)c1ncn(-c2ccc(C#N)c(C(=O)N3C[C@H](C)Oc4c(Cl)cccc43)c2)n1 | 90
* C=CCOc1ccc(-n2cnc(C(C)C)n2)cc1C(=O)N1C[C@H](C)Oc2c(Cl)cccc21 | 90
* CC(C)c1ncn(-c2ccc(OCC(F)(F)F)c(C(=O)N3C[C@H](C)Oc4c(Cl)cccc43)c2)n1 | 90
* C[C@H]1CN(C(=O)c2cc(Br)cc(-n3cncn3)c2)c2cccc(Cl)c2O1 | 90
* COc1cc(C(=O)N2C[C@H](C)Oc3c(Cl)cccc32)cc(-n2cncn2)c1 | 100
* C[C@H]1CN(C(=S)c2cccc(-n3cncn3)c2)c2cccc(Cl)c2O1 | 90
* Cc1ccc(-n2cnc(CO)n2)cc1C(=O)N1C[C@H](C)Oc2c(Cl)cccc21 | 100
